TGT: WDR5-MYC (Homo sapiens)
PROTOCOL NOTES: Disruption of WDR5/5-FAM-labelled MYC (261 to 267 residues)(unknown origin) interaction incubated for 120 mins by FP assay
Under this convention, True denotes Ki strictly below 3000 nM and False denotes Ki at or above 3000 nM.

These solved cases illustrate the format of a correct answer.
I'd appreciate it if you could check whether `N#CSc1sc(N)nc1-c1ccc(O)cc1` has Ki smaller than 3000 nM. True

I'd appreciate it if you could check whether `COc1ccc(Br)cc1S(=O)(=O)Nc1cc(Cl)ccc1O` has Ki smaller than 3000 nM. False

I'd appreciate it if you could check whether `N#CSc1sc(N)nc1-c1ccc(C(F)(F)F)cc1` has Ki smaller than 3000 nM. True

I'd appreciate it if you could check whether `N#CSc1sc(NC(=O)c2ccc(Cl)cc2)nc1-c1ccc(Cl)cc1` has Ki smaller than 3000 nM. False

I'd appreciate it if you could check whether `CNC(=O)c1ccc(-c2nc(N)sc2SC#N)cc1` has Ki smaller than 3000 nM. True

Continuing:
I'd appreciate it if you could check whether `N#CSc1sc(N)nc1-c1ccc(F)cc1` has Ki smaller than 3000 nM. False

I'd appreciate it if you could check whether `CNc1nc(-c2ccc(Cl)cc2)c(SC#N)s1` has Ki smaller than 3000 nM. True

I'd appreciate it if you could check whether `COC(=O)c1ccc(-c2nc(N)sc2SC#N)cc1` has Ki smaller than 3000 nM. True

I'd appreciate it if you could check whether `Cc1ccc(S(=O)(=O)Nc2nc(-c3ccc(Cl)cc3)c(SC#N)s2)cc1` has Ki smaller than 3000 nM. False

I'd appreciate it if you could check whether `CCOc1ccc(-c2nc(N)sc2SC#N)cc1Br` has Ki smaller than 3000 nM. False

I'd appreciate it if you could check whether `N#CSc1sc(N)nc1-c1cccc(Br)c1` has Ki smaller than 3000 nM. True

I'd appreciate it if you could check whether `N#CSc1sc(N)nc1-c1ccccc1Cl` has Ki smaller than 3000 nM. True

I'd appreciate it if you could check whether `N#CSc1cnc(N)s1` has Ki smaller than 3000 nM. False

I'd appreciate it if you could check whether `N#CSc1sc(Nc2ccccn2)nc1-c1ccc(Cl)cc1` has Ki smaller than 3000 nM. False

I'd appreciate it if you could check whether `N#CSc1sc(N)nc1-c1ccc(Cl)cc1` has Ki smaller than 3000 nM. True

Sourced from ChEMBL document CHEMBL5584277
